Measured normalised response values are reported for all entries that follow.
test system: MFM-223; experiment: normalised response (% of control), CellTiter-Glo; higher = more viable cells (100 = DMSO, 0 = benzethonium chloride kill control); settings: incubation time: 72 h
Please give a number only; it is taken to be in %.

Bench note: what normalised response did CCc1c(C(=O)C(N)=O)c2c(OCC(=O)O)cccc2n1Cc1ccccc1 [Varespladib] (10000 nM) show?
105

Next up: NC(=O)c1cccc2cn(-c3ccc([C@@H]4CCCNC4)cc3)nc12 [MK-4827] (10000 nM)
106

Follow-up item: N[C@@H](Cc1ccc(N(CCCl)CCCl)cc1)C(=O)O [Melphalan] (12500 nM)
0.21

Moving on to COc1cc2c(cc1-c1c(C)noc1C)ncc1[nH]c(=O)n([C@H](C)c3ccccn3)c12 [I-BET151] (10000 nM)
49.9

Lookup CC(C)n1nc(-c2ccc3oc(N)nc3c2)c2c(N)ncnc21 [INK128] (1000 nM)
26.5

What would you report for Cc1c(N)nc([C@H](CC(N)=O)NC[C@H](N)C(N)=O)nc1C(=O)N[C@H](C(=O)N[C@H](C)[C@@H](O)[C@H](C)C(=O)N[C@H](C(=O)NCCc1nc(-c2nc(C(=O)NCCC[S+](C)C)cs2)cs1)[C@@H](C)O)[C@@H](OC1OC(CO)C(O)C(O)C1OC1OC(CO)C(O)C(OC(N)=O)C1O)c1cnc[nH]1 (stereo partly specified) [Bleomycin] (10000 nM) ?
108
